system: JHU-022 (Oral Cavity Carcinoma); experiment: combination Emax (second highest fraction inhibited in the dose matrix, 72 h); higher = more inhibition; extreme values may be limits of the assay
Collected combination Emax values appear next to each entry.
# respond with the number and nothing more

// below: answered compounds
| compound | combination Emax |
| --- | --- |
| NC1(C(=O)N[C@@H](CCO)c2ccc(Cl)cc2)CCN(c2ncnc3[nH]ccc23)CC1 [Capivasertib] + CC(=O)c1c(C)c2cnc(Nc3ccc(N4CCNCC4)cn3)nc2n(C2CCCC2)c1=O [Palbociclib] (first compound max 10 µM, 7x7, partner max 10 µM) | 0.471 |
| COc1cccc(OCCCN)c1-c1cc(Nc2cnc(C#N)cn2)n[nH]1 [Prexasertib] + O=C(c1cc(Cc2n[nH]c(=O)c3ccccc23)ccc1F)N1CCN(C(=O)C2CC2)CC1 [Olaparib] (first compound max 1 µM, 7x7, partner max 10 µM) | 0.637 |
| C[C@@H](Oc1cc(-c2cnn(C3CCNCC3)c2)cnc1N)c1c(Cl)ccc(F)c1Cl [Crizotinib] + Cn1cnc2c(F)c(Nc3ccc(Br)cc3Cl)c(C(=O)NOCCO)cc21 [Selumetinib] (first compound max 10 µM, 7x7, partner max 10 µM) | 0.496 |
| Cc1c2c(nn1C)CSCc1cc(n(C)n1)CSc1cc(c3ccccc3c1)OCCCc1c(C(=O)O)n(C)c3c-2c(Cl)ccc13 [AZD5991] + Nc1ccn([C@@H]2O[C@H](CO)[C@@H](O)C2(F)F)c(=O)n1 [Gemcitabine] (first compound max 1 µM, 7x7, partner max 0.3 µM) | 0.659 |
| CC(=O)Nc1cccc(-n2c(=O)n(C3CC3)c(=O)c3c(Nc4ccc(I)cc4F)n(C)c(=O)c(C)c32)c1 [Trametinib] + Cc1nc(-c2cn3c(n2)-c2ccc(-c4cnn(C(C)(C)C(N)=O)c4)cc2OCC3)n(C(C)C)n1 [Taselisib] (first compound max 1 µM, 7x7, partner max 10 µM) | 0.903 |
| COc1cccc2c1C(=O)c1c(O)c3c(c(O)c1C2=O)C[C@@](O)(C(=O)CO)C[C@@H]3O[C@H]1C[C@H](N)[C@H](O)[C@H](C)O1 [Doxorubicin] + Cc1cc2ncnn2cc1Nc1ncc2c(n1)n(C1CCOCC1)c(=O)n2C [AZD7648] (first compound max 1 µM, 7x7, partner max 10 µM) | 0.858 |

Below: the item to evaluate.
Ask: Read the entry Cc1c2c(nn1C)CSCc1cc(n(C)n1)CSc1cc(c3ccccc3c1)OCCCc1c(C(=O)O)n(C)c3c-2c(Cl)ccc13 [AZD5991] + CN(C)CCCOc1ccc(-c2ccc3ncc4c(c3c2)n(C2CCOCC2)c(=O)n4C)cn1 [AZD0156] (first compound max 1 µM, 7x7, partner max 1 µM) and write its reported combination Emax.
Result: 0.172
